Protocol notes: in vivo
Measurement setup: male, beagle, dog, po, 5 mg/kg, T1/2
Attribute measured: half-life (h)

> print(dat)
                                   molecule  result.units  readout.number
1  COc1ccc2[nH]c([S+]([O-])Cc3ncc(C)c(OC)c3C)nc2n1 (stereo not shown)             h            3.74

====

Protocol notes: in vivo
Measurement setup: male, beagle, dog, po, 5 mg/kg, Cmax
Attribute measured: Cmax (ng/mL)

> print(dat)
                                   compound  readout.number
1  COc1ccc2[nH]c([S+]([O-])Cc3ncc(C)c(OC)c3C)nc2n1 (stereo not shown) [Tenatoprazole, tenatoprazole]            4280

====

Protocol notes: in vivo
Measurement setup: male, beagle, dog, po, 5 mg/kg, AUC^12
Attribute measured: AUC

> print(dat)
                                   molecule         result
1  COc1ccc2[nH]c([S+]([O-])Cc3ncc(C)c(OC)c3C)nc2n1 (stereo not shown) [Tenatoprazole, tenatoprazole]  16900 ng·h/mL

====

Protocol notes: in vivo
Measurement setup: male, beagle, dog, po, 5 mg/kg, AUC
Attribute measured: AUC (ng·h/mL)

> print(dat)
                                   compound  result.units  readout.number
1  COc1ccc2[nH]c([S+]([O-])Cc3ncc(C)c(OC)c3C)nc2n1 (stereo not shown)       ng·h/mL           18000

====

Protocol notes: in vivo
Measurement setup: male, beagle, dog, po, 5 mg/kg, MRT
Attribute measured: MRT (h)

> print(dat)
                                   molecule  attribute.measured  result.units  readout.number
1  COc1ccc2[nH]c([S+]([O-])Cc3ncc(C)c(OC)c3C)nc2n1 (stereo not shown) [Tenatoprazole, tenatoprazole]                 MRT             h             5.4
